# test.system: CLK3A (Homo sapiens, UniProt P49761)
# Construct: purchased in-house DSF kinase panel (SGC-style construct names; the trailing letter is the construct ID)
# Sequence (P49761 127-484): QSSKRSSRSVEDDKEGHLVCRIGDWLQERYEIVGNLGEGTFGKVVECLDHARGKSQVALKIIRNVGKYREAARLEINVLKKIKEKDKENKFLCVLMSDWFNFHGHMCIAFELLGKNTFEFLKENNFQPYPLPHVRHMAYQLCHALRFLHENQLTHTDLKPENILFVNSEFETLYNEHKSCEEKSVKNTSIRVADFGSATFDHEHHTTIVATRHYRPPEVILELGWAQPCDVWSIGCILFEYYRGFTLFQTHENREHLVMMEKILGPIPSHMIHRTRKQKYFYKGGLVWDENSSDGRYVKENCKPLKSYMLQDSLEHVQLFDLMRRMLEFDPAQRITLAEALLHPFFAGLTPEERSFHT
# protocol.description: DSF Tm panel
# Type: binding
# assay.conditions: 10 μM compound
readout: ΔTm at 10 µM (°C)
Number only, in °C; omit the unit.

Please look up its ΔTm at 10 µM: "O=C(NCc1ccccc1C(F)(F)F)Nc1ccc2cc1OCCOCCNc1ccn3ncc-2c3n1"
0.2

Which ΔTm at 10 µM value is on record for "O=C(NCc1ccc(Cl)cc1)Nc1ccc2cc1OCCOCCNc1ccn3ncc-2c3n1" ?
0.4

Which value of ΔTm at 10 µM has been reported for "Cc1cc(Br)ccc1CNC(=O)Nc1ccc2cc1OCCOCCNc1ccn3ncc-2c3n1" in the records?
0.2

Which ΔTm at 10 µM is listed for "O=C(NCc1ccccc1)Nc1ccc2cc1OCCOCCNc1ccn3ncc-2c3n1" ?
0.3

If you can, please state the reported ΔTm at 10 µM value of "COc1cccc(CNC(=O)Nc2ccc3cc2OCCOCCNc2ccn4ncc-3c4n2)c1" .
0.2

What does the record list as ΔTm at 10 µM for "Cc1cc(Cl)ccc1CNC(=O)Nc1ccc2cc1OCCOCCNc1ccn3ncc-2c3n1" ?
0.4

Request the reported ΔTm at 10 µM associated with "CN1CCN(C(=O)Nc2ccc3cc2OCCOCCNc2ccn4ncc-3c4n2)CC1"
0.7

Query: ΔTm at 10 µM; subject: "O=C(NCc1ccc(C(F)(F)F)cc1)Nc1ccc2cc1OCCOCCNc1ccn3ncc-2c3n1"
0.4

====

# test.system: EPHB3A (Homo sapiens, UniProt P54753)
# Construct: purchased in-house DSF kinase panel (SGC-style construct names; the trailing letter is the construct ID)
# Sequence (P54753 34-998): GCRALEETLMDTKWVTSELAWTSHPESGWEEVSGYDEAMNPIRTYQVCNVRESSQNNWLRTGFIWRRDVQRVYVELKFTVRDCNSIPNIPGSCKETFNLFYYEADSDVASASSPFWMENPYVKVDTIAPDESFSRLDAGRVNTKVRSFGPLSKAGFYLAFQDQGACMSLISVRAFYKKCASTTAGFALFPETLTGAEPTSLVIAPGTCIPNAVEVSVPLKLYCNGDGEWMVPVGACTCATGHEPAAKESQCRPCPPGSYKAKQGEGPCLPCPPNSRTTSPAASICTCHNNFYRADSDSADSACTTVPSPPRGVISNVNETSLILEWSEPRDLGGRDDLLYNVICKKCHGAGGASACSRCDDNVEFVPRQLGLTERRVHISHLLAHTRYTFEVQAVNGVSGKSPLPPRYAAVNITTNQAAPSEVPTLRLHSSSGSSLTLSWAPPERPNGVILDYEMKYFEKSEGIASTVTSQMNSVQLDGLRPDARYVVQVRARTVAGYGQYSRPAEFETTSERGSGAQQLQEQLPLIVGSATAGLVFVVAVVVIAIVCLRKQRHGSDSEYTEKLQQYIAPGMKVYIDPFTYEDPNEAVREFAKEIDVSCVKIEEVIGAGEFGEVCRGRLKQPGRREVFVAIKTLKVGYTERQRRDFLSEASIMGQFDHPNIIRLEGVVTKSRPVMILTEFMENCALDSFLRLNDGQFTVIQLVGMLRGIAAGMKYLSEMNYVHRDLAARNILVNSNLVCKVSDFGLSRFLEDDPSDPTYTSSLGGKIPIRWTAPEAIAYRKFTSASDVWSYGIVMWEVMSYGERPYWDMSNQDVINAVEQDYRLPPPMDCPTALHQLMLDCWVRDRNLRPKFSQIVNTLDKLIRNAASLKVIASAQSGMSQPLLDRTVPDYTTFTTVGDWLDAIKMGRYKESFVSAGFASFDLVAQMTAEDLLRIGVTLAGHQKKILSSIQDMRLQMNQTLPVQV
# protocol.description: DSF Tm panel
# Format: binding
# assay.conditions: 10 μM compound
Consider the cut-off 0.3 °C. If the recorded ΔTm at 10 µM is strictly smaller, the label is condition met; if not, the label is condition not met.

ΔTm at 10 µM under 0.3 °C? Item: "O=C(NCc1cccc(Cl)c1)Nc1ccc2cc1OCCOCCNc1ccn3ncc-2c3n1"
condition met

Hello, is ΔTm at 10 µM of the following compound strictly smaller than 0.3 °C? "O=C(NCc1ccc(Cl)cc1Cl)Nc1ccc2cc1OCCOCCNc1ccn3ncc-2c3n1"
condition met

Lab note: confirm whether the reported ΔTm at 10 µM for this compound is below 0.3 °C, equality not counting. compound: "Cc1cc(Br)ccc1CNC(=O)Nc1ccc2cc1OCCOCCNc1ccn3ncc-2c3n1"
condition not met

Does the reported ΔTm at 10 µM of the following compound sit strictly below 0.3 °C? "Cc1cc(Cl)ccc1CNC(=O)Nc1ccc2cc1OCCOCCNc1ccn3ncc-2c3n1"
condition not met

Quick check: ΔTm at 10 µM of "O=C(NCc1ccccc1C(F)(F)F)Nc1ccc2cc1OCCOCCNc1ccn3ncc-2c3n1" under 0.3 °C?
condition not met

I wonder whether "C[C@H](NC(=O)Nc1ccc2cc1OCCOCCNc1ccn3ncc-2c3n1)c1ccccc1" has ΔTm at 10 µM below 0.3 °C. Can you tell?
condition not met

====

# test.system: MAP2K7A (Homo sapiens, UniProt O14733)
# Construct: purchased in-house DSF kinase panel (SGC-style construct names; the trailing letter is the construct ID)
# Sequence (O14733 120-400): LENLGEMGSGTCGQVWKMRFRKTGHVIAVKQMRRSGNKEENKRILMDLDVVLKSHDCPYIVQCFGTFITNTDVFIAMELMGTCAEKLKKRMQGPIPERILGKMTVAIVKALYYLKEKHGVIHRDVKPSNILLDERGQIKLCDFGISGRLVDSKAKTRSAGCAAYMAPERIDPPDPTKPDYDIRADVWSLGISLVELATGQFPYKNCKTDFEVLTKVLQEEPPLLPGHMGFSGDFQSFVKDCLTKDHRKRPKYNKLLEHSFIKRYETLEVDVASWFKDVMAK
# protocol.description: DSF Tm panel
# Format: binding
# assay.conditions: 10 μM compound
For each record, write down the corresponding ΔTm at 10 µM.
Entry rule: numbers only, all in °C.

Any idea what ΔTm at 10 µM was measured for "Cc1ccc(F)cc1CNC(=O)Nc1ccc2cc1OCCOCCNc1ccn3ncc-2c3n1" ?
0.1

Fill in the blank: the reported ΔTm at 10 µM of "O=C(NCc1ccccc1C(F)(F)F)Nc1ccc2cc1OCCOCCNc1ccn3ncc-2c3n1" is ____.
1

What ΔTm at 10 µM value was documented for this compound, "Cc1cc(Br)ccc1CNC(=O)Nc1ccc2cc1OCCOCCNc1ccn3ncc-2c3n1" ?
0.3

Can you share its ΔTm at 10 µM? I mean this compound: "O=C(NCc1ccc(C(F)(F)F)cc1)Nc1ccc2cc1OCCOCCNc1ccn3ncc-2c3n1"
1.1

State the recorded ΔTm at 10 µM for this entry: "COc1cccc(CNC(=O)Nc2ccc3cc2OCCOCCNc2ccn4ncc-3c4n2)c1"
0.1

For "COc1cc(CNC(=O)Nc2ccc3cc2OCCOCCNc2ccn4ncc-3c4n2)ccc1F" , what is its reported ΔTm at 10 µM?
0

Record request: ΔTm at 10 µM value, item "C[C@H](NC(=O)Nc1ccc2cc1OCCOCCNc1ccn3ncc-2c3n1)c1ccccc1"
0

What value of ΔTm at 10 µM has been recorded for this entry: "COc1ccc(CNC(=O)Nc2ccc3cc2OCCOCCNc2ccn4ncc-3c4n2)cc1"
0.5

Fill in: ΔTm at 10 µM of "COc1ccc(CNC(=O)Nc2ccc3cc2OCCOCCNc2ccn4ncc-3c4n2)cc1F" is ___
0.5

GET /values?readout=ΔTm at 10 µM&item= "COc1ccccc1CNC(=O)Nc1ccc2cc1OCCOCCNc1ccn3ncc-2c3n1"
0.1

====

# test.system: SLK (Homo sapiens)
readout: Kd (nM)
Please give a number only; it is taken to be in nM.

Would you kindly share the measured Kd for Cc1cc(Cl)ccc1CNC(=O)Nc1ccc2cc1OCCOCCNc1ccn3ncc-2c3n1 [compound 23] ?
985

====

# test.system: GAKA (Homo sapiens)
# Construct: purchased in-house DSF kinase panel (SGC-style construct names; the trailing letter is the construct ID)
# Sequence (O14976 14-351): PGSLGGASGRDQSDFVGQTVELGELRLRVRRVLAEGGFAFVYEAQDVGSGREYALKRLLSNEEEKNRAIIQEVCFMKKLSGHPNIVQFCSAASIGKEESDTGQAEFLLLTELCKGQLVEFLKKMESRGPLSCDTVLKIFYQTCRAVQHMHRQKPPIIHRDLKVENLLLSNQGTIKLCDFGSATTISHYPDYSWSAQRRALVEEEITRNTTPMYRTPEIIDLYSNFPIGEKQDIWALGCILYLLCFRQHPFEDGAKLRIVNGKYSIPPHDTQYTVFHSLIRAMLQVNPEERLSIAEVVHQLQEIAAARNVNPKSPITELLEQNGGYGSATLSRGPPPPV
# protocol.description: DSF Tm panel
# Type: binding
# assay.conditions: 10 μM compound
readout: ΔTm at 10 µM

Returns the measured ΔTm at 10 µM for the input molecule. Input: O=C(NCc1ccc(Cl)cc1)Nc1ccc2cc1OCCOCCNc1ccn3ncc-2c3n1 [compound 19]
4.4 °C

May I ask what ΔTm at 10 µM has been recorded for COc1ccc(CNC(=O)Nc2ccc3cc2OCCOCCNc2ccn4ncc-3c4n2)cc1 [compound 31] ?
6.2 °C

// query ΔTm at 10 µM value for entry O=C(NCc1ccccc1Cl)Nc1ccc2cc1OCCOCCNc1ccn3ncc-2c3n1 [compound 17]
4.8 °C

Quick one: ΔTm at 10 µM for O=C(NCc1ccc(C(F)(F)F)cc1)Nc1ccc2cc1OCCOCCNc1ccn3ncc-2c3n1 [compound 28] ?
5.1 °C

====

# test.system: SLK (Homo sapiens, UniProt Q9H2G2)
# protocol.description: DSF Tm panel
# Format: binding
# Parameters: purchased in-house DSF kinase panel (SGC-style construct names; the trailing letter is the construct ID)
# assay.conditions: 10 μM compound
Exercise: state measured ΔTm at 10 µM for each of the compounds provided.
Provide the reading as a plain figure in °C.

Which ΔTm at 10 µM value is on record for O=C(NCc1ccc(C(F)(F)F)cc1)Nc1ccc2cc1OCCOCCNc1ccn3ncc-2c3n1 [compound 28] ?
3.1

Reported ΔTm at 10 µM, compound O=C(NCc1ccccc1)Nc1ccc2cc1OCCOCCNc1ccn3ncc-2c3n1 [compound 16] : ____
4.4

For the compound O=C(NCc1cccc(Cl)c1)Nc1ccc2cc1OCCOCCNc1ccn3ncc-2c3n1 [compound 18] , what ΔTm at 10 µM is on record?
4.7

Look up ΔTm at 10 µM for this compound: O=C(NCc1ccc(Cl)cc1)Nc1ccc2cc1OCCOCCNc1ccn3ncc-2c3n1 [compound 19]
5.2

====

# test.system: FGFR1B (Homo sapiens)
# Construct: purchased in-house DSF kinase panel (SGC-style construct names; the trailing letter is the construct ID)
# Sequence (P11362 456-767): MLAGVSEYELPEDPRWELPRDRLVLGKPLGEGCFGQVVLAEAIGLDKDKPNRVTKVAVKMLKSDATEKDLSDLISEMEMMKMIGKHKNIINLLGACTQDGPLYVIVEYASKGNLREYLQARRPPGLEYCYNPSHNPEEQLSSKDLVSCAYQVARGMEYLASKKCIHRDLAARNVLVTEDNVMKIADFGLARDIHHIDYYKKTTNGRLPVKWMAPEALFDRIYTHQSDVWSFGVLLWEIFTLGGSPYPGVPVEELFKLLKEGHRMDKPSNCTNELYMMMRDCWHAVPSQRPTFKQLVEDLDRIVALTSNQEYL
# protocol.description: DSF Tm panel
# Assay type: binding
# assay.conditions: 10 μM compound
readout: ΔTm at 10 µM

Fill in: ΔTm at 10 µM of "O=C(NCc1ccc(Cl)cc1F)Nc1ccc2cc1OCCOCCNc1ccn3ncc-2c3n1" is ___
1.1 °C

# ΔTm at 10 µM lookup, item "O=C(NCc1ccc(C(F)(F)F)cc1)Nc1ccc2cc1OCCOCCNc1ccn3ncc-2c3n1"
1.5 °C

ΔTm at 10 µM for "O=C(NCc1ccc(Cl)cc1)Nc1ccc2cc1OCCOCCNc1ccn3ncc-2c3n1" ?
1.5 °C

Param item = "O=C(NCc1ccc(Cl)cc1Cl)Nc1ccc2cc1OCCOCCNc1ccn3ncc-2c3n1" ; retrieve measured ΔTm at 10 µM.
0.9 °C
